- system under test: CYP83B1 (Arabidopsis thaliana, UniProt O65782)
- Sequence (O65782 1-499): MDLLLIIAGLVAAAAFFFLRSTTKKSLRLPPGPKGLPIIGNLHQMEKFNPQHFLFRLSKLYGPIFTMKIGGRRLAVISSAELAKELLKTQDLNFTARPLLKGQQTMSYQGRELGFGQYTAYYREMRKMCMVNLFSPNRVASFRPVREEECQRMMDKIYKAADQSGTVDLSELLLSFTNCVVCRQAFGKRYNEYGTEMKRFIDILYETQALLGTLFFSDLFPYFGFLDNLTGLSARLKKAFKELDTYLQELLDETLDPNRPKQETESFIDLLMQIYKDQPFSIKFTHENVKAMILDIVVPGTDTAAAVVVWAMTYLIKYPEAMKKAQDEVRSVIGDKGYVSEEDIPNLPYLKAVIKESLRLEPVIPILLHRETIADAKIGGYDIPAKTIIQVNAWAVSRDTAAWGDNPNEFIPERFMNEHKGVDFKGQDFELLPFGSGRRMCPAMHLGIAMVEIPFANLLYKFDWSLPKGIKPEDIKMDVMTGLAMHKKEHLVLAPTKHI
# key: entry, value: pKd
Reminder that pKd means the negative base-10 logarithm of the concentration expressed in mol/L.

test_smiles=NCCc1c[nH]c2ccccc12 result_number=4.62

Recorded pKd for "ON=CCc1c[nH]c2ccccc12" with CYP83B1 (Arabidopsis thaliana, UniProt O65782), please?
6.70
